All figures here come from paper PMC11284800.

Biological target: hCB1R (Homo sapiens, UniProt P21554)
Assay: biochemical
Details: pKi
Sequence (P21554 91-472): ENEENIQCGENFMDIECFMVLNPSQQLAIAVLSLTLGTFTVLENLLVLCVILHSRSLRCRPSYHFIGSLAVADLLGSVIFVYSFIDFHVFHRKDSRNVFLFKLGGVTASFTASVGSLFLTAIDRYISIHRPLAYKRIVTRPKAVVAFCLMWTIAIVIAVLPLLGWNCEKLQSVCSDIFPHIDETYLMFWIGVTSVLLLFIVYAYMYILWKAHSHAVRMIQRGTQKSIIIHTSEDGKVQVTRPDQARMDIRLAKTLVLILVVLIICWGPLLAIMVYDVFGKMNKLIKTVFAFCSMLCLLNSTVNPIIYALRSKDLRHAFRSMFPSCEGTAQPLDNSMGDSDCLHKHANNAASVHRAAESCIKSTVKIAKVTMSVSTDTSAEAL
pKi: −log10 of the molar value.
Readout label: pKi

- Compound: "CCCCCCC(C)(C)c1cc(O)c2c(c1)OC(C)(C)[C@@H]1CC=C(CO)C[C@@H]21 [HU210]"
  Readout number: 8.69

----------
Target: hCB1R (Homo sapiens)
Assay: [3H]CP55,940 displacement assay on CHO membranes, CB1R
Assay type: binding
Parameters: host or cells: CHO-K1 (CHOK1hCB1_bgal)
Settings: hCB1R pKi ± SEM, [3H]CP55,940 displacement, CHO membranes
Sequence (P21554 whole entry): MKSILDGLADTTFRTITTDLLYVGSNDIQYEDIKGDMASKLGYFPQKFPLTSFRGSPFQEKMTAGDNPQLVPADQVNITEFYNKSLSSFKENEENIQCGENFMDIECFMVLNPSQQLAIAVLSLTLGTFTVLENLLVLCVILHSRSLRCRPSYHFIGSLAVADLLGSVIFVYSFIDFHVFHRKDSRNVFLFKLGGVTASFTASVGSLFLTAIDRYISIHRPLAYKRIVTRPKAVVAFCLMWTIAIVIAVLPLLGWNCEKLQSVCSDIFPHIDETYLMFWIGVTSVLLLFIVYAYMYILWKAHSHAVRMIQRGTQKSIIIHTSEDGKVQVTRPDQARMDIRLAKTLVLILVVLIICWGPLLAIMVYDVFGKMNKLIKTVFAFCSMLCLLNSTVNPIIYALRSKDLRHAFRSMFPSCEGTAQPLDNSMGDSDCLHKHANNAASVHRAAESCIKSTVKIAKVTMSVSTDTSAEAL
pKi: −log10 of the molar value.

- Molecule: "CCOC(=O)C(CC)(CC)NC(=O)c1nn(Cc2cccc(F)c2)c2ccccc12 [Compound 19]"
  Target desc: "hCB1R (Homo sapiens)"
  pKi: 7.72
- Molecule: "CCOC(=O)C(CC)(CC)NC(=O)c1nn(-c2ccc(Cl)cc2Cl)c(-c2ccc(Cl)cc2)c1C [Compound 15]"
  Target desc: "hCB1R (Homo sapiens)"
  pKi: 7.55
- Molecule: "CCOC(=O)C(CC)(CC)NC(=O)c1cc(-c2cc(C(F)(F)F)ccc2C(F)(F)F)n(C[C@H]2CCCO2)c1C [Compound 14]"
  Target desc: "hCB1R (Homo sapiens)"
  pKi: 7.96
- Molecule: "CCOC(=O)C(CC)(CC)NC(=O)c1nn(-c2ccc(Cl)cc2Cl)c2c1CCCc1cc(Cl)ccc1-2 [Compound 16]"
  Target desc: "hCB1R (Homo sapiens)"
  pKi: 7.75
- Molecule: "CCC(CC)(NC(=O)c1nn(-c2ccc(Cl)cc2Cl)c(-c2ccc(Cl)cc2)c1C)C(=O)NCCOCCNC(=O)OC(C)(C)C [Compound 23a]"
  Target desc: "hCB1R (Homo sapiens)"
  pKi: 7.43
- Molecule: "CCC(CC)(NC(=O)c1cnc(OCC2CC2)c(-c2ccc(F)cc2)c1)C(=O)NCCOCCOCCNC(=O)OC(C)(C)C [Compound 25]"
  Target desc: "hCB1R (Homo sapiens)"
  pKi: 5.52

----------
Assay: Photophysical characterization in PBS
Format: physicochemical
Details: PBS pH 7.4

- Compound: "CCC(CC)(NC(=O)c1nn(-c2ccc(Cl)cc2Cl)c(-c2ccc(Cl)cc2)c1C)C(=O)NCCOCCOCCNC(=O)c1ccc2c(c1)C(=O)OC21c2ccc(N(C)C)cc2Oc2cc(N(C)C)ccc21 [Compound 31]"
  Units label: "nm"
  Em (emission maximum): 585
- Compound: "CCC(CC)(NC(=O)c1cnc(OCCOC)c(-c2ccc(Cl)cc2)n1)C(=O)NCCOCCOCCNC(=O)c1ccc2c(c1)C(=O)OC21c2ccc(N(C)C)cc2Oc2cc(N(C)C)ccc21 [Compound 35]"
  Units label: "nm"
  Em (emission maximum): 590
- Compound: "CCC(CC)(NC(=O)c1cc(-c2cc(C(F)(F)F)ccc2C(F)(F)F)n(C[C@H]2CCCO2)c1C)C(=O)NCCOCCOCCNc1ccc([N+](=O)[O-])c2nonc12 [Compound 28]"
  Units label: "nm"
  Em (emission maximum): 550
- Compound: "CCC(CC)(NC(=O)c1nn(-c2ccc(Cl)cc2Cl)c2c1CCCc1cc(Cl)ccc1-2)C(=O)NCCOCCOCCNc1ccc([N+](=O)[O-])c2nonc12 [Compound 32]"
  Units label: "nm"
  Em (emission maximum): 570
- Compound: "CCC(CC)(NC(=O)c1cnc(OCCOC)c(-c2ccc(Cl)cc2)n1)C(=O)NCCOCCOCCNc1ccc([N+](=O)[O-])c2nonc12 [Compound 34]"
  Units label: "nm"
  Em (emission maximum): 545
- Compound: "CCC(CC)(NC(=O)c1nn(Cc2cccc(F)c2)c2ccccc12)C(=O)NCCOCCOCCNc1ccc([N+](=O)[O-])c2nonc12 [Compound 36]"
  Units label: "nm"
  Em (emission maximum): 565
- Compound: "CCC(CC)(NC(=O)c1nn(-c2ccc(Cl)cc2Cl)c2c1CCCc1cc(Cl)ccc1-2)C(=O)NCCOCCOCCNC(=O)c1ccc2c(c1)C(=O)OC21c2ccc(N(C)C)cc2Oc2cc(N(C)C)ccc21 [Compound 33]"
  Units label: "nm"
  Em (emission maximum): 585
- Compound: "CCC(CC)(NC(=O)c1cc(-c2cc(C(F)(F)F)ccc2C(F)(F)F)n(C[C@H]2CCCO2)c1C)C(=O)NCCOCCOCCNC(=O)c1ccc2c(c1)C(=O)OC21c2ccc(N(C)C)cc2Oc2cc(N(C)C)ccc21 [Compound 29]"
  Units label: "nm"
  Em (emission maximum): 585
- Compound: "CCC(CC)(NC(=O)c1cnc(OCC2CC2)c(-c2ccc(F)cc2)c1)C(=O)NCCOCCOCCNc1ccc([N+](=O)[O-])c2nonc12 [Compound 40]"
  Units label: "nm"
  Em (emission maximum): 550
- Compound: "CCC(CC)(NC(=O)c1nn(-c2ccc(Cl)cc2Cl)c(-c2ccc(Cl)cc2)c1C)C(=O)NCCOCCOCCNc1ccc([N+](=O)[O-])c2nonc12 [Compound 30]"
  Units label: "nm"
  Em (emission maximum): 570
- Compound: "CCC(CC)(NC(=O)c1cnc(OCC2CC2)c(-c2ccc(F)cc2)c1)C(=O)NCCOCCOCCNC(=O)c1ccc2c(c1)C(=O)OC21c2ccc(N(C)C)cc2Oc2cc(N(C)C)ccc21 [Compound 41]"
  Units label: "nm"
  Em (emission maximum): 585
- Compound: "CCC(CC)(NC(=O)c1cc(-c2cc(C(F)(F)F)ccc2C(F)(F)F)n(C[C@H]2CCCO2)c1C)C(=O)NCCOCCOCCNc1ccc([N+](=O)[O-])c2n[nH]nc12 [Compound 52]"
  Units label: "nm"
  Em (emission maximum): 495
- Compound: "CCC(CC)(NC(=O)c1cc(-c2cc(C(F)(F)F)ccc2C(F)(F)F)n(C[C@H]2CCCO2)c1C)C(=O)NCCOCCOCCNc1ccc([N+](=O)[O-])c2nsnc12 [Compound 51]"
  Units label: "nm"
  Em (emission maximum): 550
